System: Staphylococcus aureus
Test: Antibacterial activity against methicillin-resistant Staphylococcus aureus clinical isolate OM584 by liquid microdilution method
Type: functional
Measured log10(MIC), listed per entry for reference.
Please be aware that the numbers have been log10-transformed from MIC in µg/mL.

{"Molecule Smiles": "Oc1ccc2c(c1)CCc1ccc(c(F)c1)Oc1cc(ccc1O)CCc1ccc-2c(O)c1", "Test Value": 0.90}

Kindly consider the entry below.
Please report the recorded log10(MIC) for Oc1ccc2c(c1)CCc1ccc(c(O)c1)-c1ccc(O)c(c1)CCc1ccc-2c(O)c1 .
1.51

----------
Measured MIC, listed per entry for reference.
Test system: Staphylococcus aureus
Test: Antibacterial activity against methicillin-resistant Staphylococcus aureus clinical isolate OM481 by liquid microdilution method
Assay type: functional
Hi! Could you send only the number? It should be in mg/L, unit omitted.

// known answers, use as guide
{"Molecule Smiles": "CC(=O)NC[C@H]1CN(c2ccc(N3CCOCC3)c(F)c2)C(=O)O1", "Test Value": 1}
{"Molecule Smiles": "Oc1ccc2c(c1)CCc1ccc(cc1)Oc1cc(ccc1O)CCc1ccc-2c(O)c1", "Test Value": 2}
{"Molecule Smiles": "Oc1ccc2c(c1)CCc1ccc(cc1)Oc1cc(ccc1F)CCc1ccc-2c(O)c1", "Test Value": 1}

Please report the recorded MIC for Oc1ccc2c(c1)CCc1ccc(cc1)Oc1cccc(c1)CCc1ccc-2c(O)c1 .
1

Try this compound next: Oc1ccc2c(c1)CCc1ccc(c(F)c1)Oc1cc(ccc1O)CCc1ccc-2c(O)c1
8

Try this compound next: Oc1ccc2c(c1)CCc1ccc(O)c(c1)Oc1ccc(cc1)CCc1ccc-2c(O)c1
4

Try this compound next: Oc1ccc2c(c1)CCc1ccc(cc1O)Oc1cccc(c1)CCc1ccc-2c(O)c1
4

Try this compound next: Oc1ccc2cc1Oc1ccc(cc1)CCc1ccccc1-c1ccc(cc1O)CC2
1

----------
Test system: Staphylococcus aureus
Experiment: Antibacterial activity against methicillin-resistant Staphylococcus aureus clinical isolate OM584 by liquid microdilution method
Assay type: functional
Assay Metric: MIC (µg/mL)
Hi! Could you send only the number? It should be in µg/mL, unit omitted.

// known answers, use as guide
{"Molecule Smiles": "Oc1ccc2c(c1)CCc1ccc(cc1)Oc1cc(ccc1F)CCc1ccc-2c(O)c1", "MIC (µg/mL)": 2}
{"Molecule Smiles": "Oc1ccc2c(c1)CCc1ccc(c(O)c1)Oc1cc(ccc1O)CCc1ccc-2c(O)c1", "MIC (µg/mL)": 16}
{"Molecule Smiles": "CC(=O)NC[C@H]1CN(c2ccc(N3CCOCC3)c(F)c2)C(=O)O1", "MIC (µg/mL)": 1}

Please report the recorded MIC for Oc1ccc2cc1Oc1ccc(cc1)CCc1ccccc1-c1ccc(cc1O)CC2 .
1

----------
Measured MIC, listed per entry for reference.
Tested on: Staphylococcus aureus
Test: Antibacterial activity against methicillin-resistant Staphylococcus aureus clinical isolate OM584 by liquid microdilution method
Format: functional
Hi! Could you send only the number? It should be in µg/mL, unit omitted.

{"Molecule Smiles": "Oc1ccccc1Oc1ccccc1", "MIC / µg/mL": 8}
{"Molecule Smiles": "Oc1ccc2c(c1)CCc1ccc(cc1)Oc1cccc(c1)CCc1ccc-2c(O)c1", "MIC / µg/mL": 1}
{"Molecule Smiles": "Oc1ccc2c(c1)CCc1ccc(cc1O)Oc1cccc(c1)CCc1ccc-2c(O)c1", "MIC / µg/mL": 4}
{"Molecule Smiles": "Oc1ccc2c(c1)CCc1ccc(cc1)Oc1cc(ccc1O)CCc1ccc-2c(O)c1", "MIC / µg/mL": 2}
{"Molecule Smiles": "Oc1ccc2c(c1)CCc1ccc(O)c(c1)Oc1ccc(cc1)CCc1ccc-2c(O)c1", "MIC / µg/mL": 4}

Kindly consider the entry below.
Please report the recorded MIC for Oc1ccc2c(c1)CCc1ccc(cc1O)Oc1cc(ccc1O)CCc1ccc-2c(O)c1 .
8
